# System: 947758-054-R-J2-PDC spheroid growth, percent test/control;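 note: spheroids exposed to compounds for one week before readout; 100% = DMSO vehicle control wells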
# protocolNotes: Anticancer human tumor 947758-054-R-J2-PDC patient-derived colon adenocarcinoma cell line growth inhibition [CLK]
# assayConditions: second compound 1 µM; first compound 1 µM; hits give low values; spheroids with HUVEC and MSC
readout: viability, T/C (%)
Give your result in % as a bare value.

Solved cases (3 shown):
>  <molecule>
COC1C=CCC(C)C(C)S(=O)(=O)NC(=O)c2ccc3c(c2)N(CC2CCC21)CC1(CCCc2cc(Cl)ccc21)CO3 (stereo not given) + CNC(=O)c1ccc(Nc2nc(OC3CCCC3)c3c(-c4ccc5nc(C)oc5c4)c[nH]c3n2)c(OC)c1

>  <unitOfMeasure>
%

>  <viability, T/C>
29.5

$$$$
>  <molecule>
C#Cc1c(F)ccc2cc(O)cc(-c3ncc4c(N5CC6CCC(C5)N6)nc(OCC56CCCN5CC(F)C6)nc4c3F)c12 (stereo not given) + CNC(=O)c1ccc(Nc2nc(OC3CCCC3)c3c(-c4ccc5nc(C)oc5c4)c[nH]c3n2)c(OC)c1

>  <unitOfMeasure>
%

>  <viability, T/C>
53.8

$$$$
>  <molecule>
CC(Nc1ccc2c(c1)OCCn1cc(N3C(=O)OCC3C(F)F)nc1-2)C(N)=O (stereo not given) + CN1CCN(c2cc(C(=O)Nc3cc4cc(-c5cnn(C)c5)ccc4cn3)ccn2)CC1

>  <unitOfMeasure>
%

>  <viability, T/C>
0.11

$$$$

// query Record request: viability, T/C value, item CCN1CCN(Cc2ccc(Nc3ncc(F)c(-c4cc(F)c5nc(C)n(C(C)C)c5c4)n3)nc2)CC1 + CNC(=O)c1ccc(Nc2nc(OC3CCCC3)c3c(-c4ccc5nc(C)oc5c4)c[nH]c3n2)c(OC)c1
// result 19.8

// query Likewise for O=C(c1cc(Cc2n[nH]c(=O)c3ccccc23)ccc1F)N1CCN(C(=O)C2CC2)CC1 + CN1CCN(c2cc(C(=O)Nc3cc4cc(-c5cnn(C)c5)ccc4cn3)ccn2)CC1 ?
// result 0.09
